test system: SK-MEL-5 melanoma; experiment: NCI-60 one-dose screen, 48 h (100 = growth as untreated, 0 = no growth, -100 = all killed); conditions: 10 µM
This is part of a sample that, as a whole, favours compounds with a hit. Of some 83,000 tested, about 20% had one in any assay.
endpoint.name: growth (%)
Provide only the numeric value, understood in %.

Worked cases, growth given:
1) COc1cc(-c2nc(-c3nnc(-c4ccc(F)c(Cl)c4)o3)c3ccccn23)cc(OC)c1OC = 39.7
2) O=C(Nc1cccc(-n2cc(-c3ccncc3)c(-c3cc(O)cc(Cl)c3)n2)c1)c1cc(C(F)(F)F)cc(C(F)(F)F)c1 = 64.5
3) CCN1CCCC1CNC(=O)c1ncc(-c2ccc(C(F)(F)F)cc2)c(NC2CCCCCC2)n1 (stereo unspecified) = 45.2
4) CC1CN(Cc2ccccc2)C(=O)NC1=O (stereo unspecified) = 106
5) Cc1ccc(S(=O)(=O)Oc2ccc3c4c(c(=O)oc3c2)CCCCC4)cc1 = 20.5

Sure, the documented growth for CCC1(C(C)C)NC(=O)NC1=O (stereo unspecified) is 104

Per the record, CC/C(=C(/c1ccc(OCCN(C)C)cc1)c1ccc(OC(=O)CCCCC(=O)c2c(C)[nH]c(/C=C3\N=C(c4ccc[nH]4)C=C3OC)c2C)cc1)c1ccccc1 has growth of 36.4

growth reading for CC(=O)/C(=C/c1ccccc1)C(=O)CC(C)C : 88.1

Entry O=C(Nc1ccc(OS(=O)(=O)c2ccccc2)cc1)C12CC3CC(CC(C3)C1)C2 , growth reported as 32

The reported growth of the molecule NC(=S)N=Nc1c(O)c2ccccc2c2ccccc12 was -99

Consider N#Cc1ncc(-c2cc(F)c(F)c(F)c2)c(NC2CCCCCC2)n1 . Its measured growth is 93

###

test system: SK-MEL-2 melanoma; experiment: NCI-60 one-dose screen, 48 h (100 = growth as untreated, 0 = no growth, -100 = all killed); settings: 10 µM
This is part of a sample that, as a whole, favours compounds with a hit. Of some 83,000 tested, about 20% had one in any assay.
endpoint.name: growth (%)
I only need the number, in %, no unit after it.

Guide cases for growth, answers given:
1) Cn1c([N+](=O)[O-])cnc1/C=C1\Oc2cc(Cl)ccc2C1=O = -55.2
2) CCCCCCCC(C)NCCO (stereo unspecified) = 106
3) CCN1CCC(CCOC)(CN2c3ccccc3Sc3ccc(Cl)cc32)C1 (stereo unspecified) = 88.5
4) O=C(C[P+](c1ccccc1)(c1ccccc1)c1ccccc1)C[P+](c1ccccc1)(c1ccccc1)c1ccccc1 = -79.8
5) NC(=O)SCC(=O)Nc1ccc(S(N)(=O)=O)cc1 = 111

Noted for CCN(CC)CCOc1nc2ccccc2c2c1-c1ccc(OC)cc1C2=O : its growth reads -2.62

Briefly, growth measured for COc1cc(NC(=O)CSc2nc3ccccc3c(=O)n2CCc2ccccc2)cc(OC)c1OC : -2.19

###

test system: A549/ATCC NSCLC; assay: NCI-60 one-dose screen, 48 h; conditions: 10 µM
This is part of a sample that, as a whole, favours compounds with a hit. Of some 83,000 tested, about 20% had one in any assay. Activity calls are given as the source filed them. Rule for the calls: active = growth percent below 10; inactive = the rest.
Pick one: active, inactive

1. COc1cc(-c2cc(/C=C/C(=O)c3ccc(Cl)c(Cl)c3)[nH]n2)cc(OC)c1OC = inactive

What did the test return for COc1ccc(-c2nn(-c3cccc(NC(=O)c4cc(C(F)(F)F)cc(C(F)(F)F)c4)c3)cc2-c2ccncc2)cc1Cl ? inactive

Assay outcome for CCCCCCCCCCCC[n+]1ccc(C(N)=O)cc1 : what was it? inactive

Values from PubChem BioAssay (NCI)
